Biological target: ΔF508-CFTR (Homo sapiens, UniProt P13569, DEL508-508)
Construct: host or cells: CFBE41o-, doxycycline-inducible
Sequence (P13569 with tags, fused parts or gaps DEL508-508): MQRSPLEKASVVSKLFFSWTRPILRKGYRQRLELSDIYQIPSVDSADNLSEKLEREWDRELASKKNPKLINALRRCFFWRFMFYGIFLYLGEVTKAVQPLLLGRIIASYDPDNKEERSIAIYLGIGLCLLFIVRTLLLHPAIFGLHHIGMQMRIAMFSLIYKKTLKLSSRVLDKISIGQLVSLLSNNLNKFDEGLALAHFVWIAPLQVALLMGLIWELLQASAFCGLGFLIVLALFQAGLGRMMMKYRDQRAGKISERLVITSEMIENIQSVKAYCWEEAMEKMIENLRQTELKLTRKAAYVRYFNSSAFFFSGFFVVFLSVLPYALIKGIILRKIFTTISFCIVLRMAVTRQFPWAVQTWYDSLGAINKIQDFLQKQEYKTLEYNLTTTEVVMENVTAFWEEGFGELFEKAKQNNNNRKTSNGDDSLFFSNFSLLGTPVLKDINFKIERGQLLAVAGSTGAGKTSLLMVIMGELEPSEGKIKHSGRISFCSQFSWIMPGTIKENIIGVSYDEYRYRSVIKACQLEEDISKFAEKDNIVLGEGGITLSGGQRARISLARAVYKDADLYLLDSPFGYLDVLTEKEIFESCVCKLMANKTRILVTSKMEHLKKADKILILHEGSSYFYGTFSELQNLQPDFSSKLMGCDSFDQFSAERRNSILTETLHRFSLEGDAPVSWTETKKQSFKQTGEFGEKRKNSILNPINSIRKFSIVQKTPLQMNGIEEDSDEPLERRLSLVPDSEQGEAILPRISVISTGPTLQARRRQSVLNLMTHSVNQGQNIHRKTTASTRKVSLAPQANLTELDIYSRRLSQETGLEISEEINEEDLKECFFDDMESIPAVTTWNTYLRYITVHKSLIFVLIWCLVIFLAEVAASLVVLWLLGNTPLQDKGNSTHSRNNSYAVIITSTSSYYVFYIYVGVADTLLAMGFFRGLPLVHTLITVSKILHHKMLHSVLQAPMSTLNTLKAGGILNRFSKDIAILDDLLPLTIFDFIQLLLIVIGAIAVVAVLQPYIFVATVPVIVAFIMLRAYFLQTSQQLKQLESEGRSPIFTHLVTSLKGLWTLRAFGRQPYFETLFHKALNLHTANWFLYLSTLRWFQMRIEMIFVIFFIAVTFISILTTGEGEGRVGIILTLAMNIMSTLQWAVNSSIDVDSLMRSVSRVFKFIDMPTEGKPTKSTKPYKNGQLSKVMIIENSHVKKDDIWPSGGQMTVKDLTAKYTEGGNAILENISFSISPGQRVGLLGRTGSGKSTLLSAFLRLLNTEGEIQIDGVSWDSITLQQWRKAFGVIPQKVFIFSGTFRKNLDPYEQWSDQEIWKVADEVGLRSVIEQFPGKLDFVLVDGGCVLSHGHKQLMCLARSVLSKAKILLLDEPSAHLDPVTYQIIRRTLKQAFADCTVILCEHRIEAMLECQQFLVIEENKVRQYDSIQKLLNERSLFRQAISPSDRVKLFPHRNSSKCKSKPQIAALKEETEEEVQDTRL
Experiment: CFTR cell surface levels using HRP-tagged ΔF508-CFTR expressing CFBE cells, intrinsic corrector capacity
Type: cell-based
Set-up: concentration or dose not given beside the values
Settings: HRP-tagged ΔF508-CFTR expressing CFBE41o- cells; compound alone (intrinsic corrector capacity); 20 hours at 33° C.
Exercise: for every item that follows, state its recorded % Activation.
Give bare numbers, in %.

In the examples that follow, each entry is paired with its recorded % Activation.
Cc1nn(-c2cccc(OC(F)(F)F)c2)c2nc(C(=O)NS(C)(=O)=O)cc(-c3ccc(N4CCOCC4)cc3)c12 [Compound 6]    232.1
COCC1CCN(c2cc(C(=O)NS(C)(=O)=O)nc3c2c(C(C)C)nn3C2CCCCC2)CC1 [Compound 218]    268.37
CNS(=O)(=O)NC(=O)c1cc(N2CCC(N3CCN(C(C)C)CC3)CC2)c2c(C3CCC3)nn(-c3ccc(F)cc3)c2n1 [Compound 638]    398.98
CN(C)S(=O)(=O)NC(=O)c1cc(N2CCN(c3ccncc3)CC2)c2c(C3CCC3)nn(C3CCCCC3)c2n1 [Compound 469]    253.8
COC1CC(CN2CCC(c3cc(C(=O)NS(C)(=O)=O)nc4c3c(C3CCC3)nn4-c3ccc(F)cc3)CC2)C(OC)O1 (centres unmarked) [Compound 602]    133.6
COCC1CCN(c2cc(C(=O)NS(=O)(=O)N3CCOCC3)nc3c2c(C2CCC2)nn3-c2ccc(F)cc2)CC1 [Compound 671]    252.95

Provide the reported % Activation of each entry below, same order.
1. COCC1CCN(c2cc(C(=O)NS(C)(=O)=O)nc3c2c(C(C)C)nn3-c2cccc(C)c2)CC1 [Compound 156]
2. CC(C)c1nn(-c2ccc(F)cc2)c2nc(C(=O)NS(C)(=O)=O)cc(N3CCC4(CCO4)CC3)c12 [Compound 177]
3. COCCS(=O)(=O)NC(=O)c1cc(N2CCC(COC)CC2)c2c(C(C)C)nn(-c3ccnc(N4CCOCC4)c3)c2n1 [Compound 249]

Output line:
1: 411; 2: 99.405; 3: 187.6

From: patent US10259810B2
